tested on: HEK293; test: Cytotoxicity in human HEK293 cells assessed as reduction in cell viability at 20 uM […] relative to chloramphenicol; format: cell-based; conditions: hek293, 20 µM

[
  {
    "compound.smiles": "C[C@@H](NC(=O)CNC(=O)CCC(=O)OC[C@@H](NC(=O)C(Cl)Cl)[C@H](O)c1ccc([N+](=O)[O-])cc1)C(=O)O",
    "system": "HEK293",
    "Activity": "Toxic"
  },
  {
    "compound.smiles": "O=C(O)CNC(=O)[C@H](Cc1ccccc1)NC(=O)CNC(=O)CCC(=O)OC[C@@H](NC(=O)C(Cl)Cl)[C@H](O)c1ccc([N+](=O)[O-])cc1",
    "system": "HEK293",
    "Activity": "Toxic"
  },
  {
    "compound.smiles": "O=C(CCC(=O)OC[C@@H](NC(=O)C(Cl)Cl)[C@H](O)c1ccc([N+](=O)[O-])cc1)NCC(=O)NCC(=O)N[C@@H](Cc1ccccc1)C(=O)N[C@@H](Cc1ccccc1)C(=O)O",
    "system": "HEK293",
    "Activity": "Toxic"
  }
]

* * *

assay: Cytotoxicity in human HS5 cells assessed as reduction in cell viability at 20 uM to 2 mM incubated up to […]rs relative to chloramphenicol; assay type: cell-based
*1 amine or outer side, *2 acyl side, *3 side chain or, on linkers, in order; H or OH if unused. Where a SMILES comes first, the peptide text is derived from it. [ ]: non-standard residue; d: D form. The star is where a group is joined. X1 = O=C(CCC(=O)[*:2])OC[C@@H](N[*:1])[C@H](O)c1ccc([N+](=O)[O-])cc1; Dichloroacetyl = O=C(C(Cl)Cl)*
experimental.readout: Activity

Some entries whose results are on file:
[
  {
    "compound": "CNC(=O)CNC(=O)CNC(=O)CCC(=O)OC[C@@H](NC(=O)C(Cl)Cl)[C@H](O)c1ccc([N+](=O)[O-])cc1",
    "Activity": "Non-Toxic"
  },
  {
    "compound": "O=C(O)CNC(=O)CNC(=O)CNC(=O)CNC(=O)CCC(=O)OC[C@@H](NC(=O)C(Cl)Cl)[C@H](O)c1ccc([N+](=O)[O-])cc1 (Dichloroacetyl-[X1]GGGG-OH)",
    "Activity": "Non-Toxic"
  },
  {
    "compound": "O=C(CCC(=O)OC[C@@H](NC(=O)C(Cl)Cl)[C@H](O)c1ccc([N+](=O)[O-])cc1)NCC(=O)NCC(=O)N[C@H](Cc1ccccc1)C(=O)N[C@H](Cc1ccccc1)C(=O)O",
    "Activity": "Non-Toxic"
  },
  {
    "compound": "O=C(CCC(=O)OC[C@@H](NC(=O)C(Cl)Cl)[C@H](O)c1ccc([N+](=O)[O-])cc1)NCC(=O)NCC(=O)N[C@@H](Cc1ccccc1)C(=O)O",
    "Activity": "Non-Toxic"
  },
  {
    "compound": "O=C(O)CCC(=O)OC[C@@H](NC(=O)C(Cl)Cl)[C@H](O)c1ccc([N+](=O)[O-])cc1",
    "Activity": "Non-Toxic"
  }
]

Consider now this further compound.
Looking up NCCCC[C@H](NC(=O)CNC(=O)CCC(=O)OC[C@@H](NC(=O)C(Cl)Cl)[C@H](O)c1ccc([N+](=O)[O-])cc1)C(=O)O , I found its Activity recorded as Non-Toxic
